# assay notes: Approximate solubility of Compound I-1 (amorphous) in different solvents (manual dilution, visual observation)
# Format: physicochemical
# test context: Methyl t-butyl ether, ambient laboratory temperature
Residues, ends and D or L forms follow the SMILES beside them. *: point of attachment. Palmitoyl = CCCCCCCCCCCCCCCC(=O)*

compound	solubility
CCCCCCCCCCCCCCCC(=O)N1CCC[C@H]1C(=O)N1CCC[C@H]1C(=O)NCC(=O)N[C@@H](Cc1ccc(O)cc1)C(=O)[O-].[Na+] [Compound I-1 (Amorphous)] (Palmitoyl-PPGY-OH)	< 1000 µg/mL

====

# assay notes: Approximate solubility of Compound I-1-Acid in different solvents (manual dilution, visual observation)
# Assay type: physicochemical
# test context: Acetone; room temperature
Residues, ends and D or L forms follow the SMILES beside them. *: point of attachment. Palmitoyl = CCCCCCCCCCCCCCCC(=O)*
measured parameter: solubility

molecule	measured parameter	result
CCCCCCCCCCCCCCCC(=O)N1CCC[C@H]1C(=O)N1CCC[C@H]1C(=O)NCC(=O)N[C@@H](Cc1ccc(O)cc1)C(=O)O [Compound I-1-Acid] (Palmitoyl-PPGY-OH)	solubility	< 1000 µg/mL

====

# assay notes: Approximate solubility of Compound I-2 (amorphous) at room temperature
# Format: physicochemical
# test context: Ethyl acetate
Residues, ends and D or L forms follow the SMILES beside them. *: point of attachment. Palmitoyl = CCCCCCCCCCCCCCCC(=O)*

compound	solubility
CCCCCCCCCCCCCCCC(=O)N1CCC[C@H]1C(=O)N1CCC[C@H]1C(=O)NCC(=O)N[C@@H](Cc1ccc(O)cc1)C(=O)[O-].[K+] [Compound I-2 (amorphous)] (Palmitoyl-PPGY-OH)	< 1000 µg/mL

====

# assay notes: Approximate solubility of Compound I-1 (amorphous) in different solvents (manual dilution, visual observation)
# Format: physicochemical
# test context: 2-Methyl Tetrahydrofuran, ambient laboratory temperature
Residues, ends and D or L forms follow the SMILES beside them. *: point of attachment. Palmitoyl = CCCCCCCCCCCCCCCC(=O)*

compound	solubility
CCCCCCCCCCCCCCCC(=O)N1CCC[C@H]1C(=O)N1CCC[C@H]1C(=O)NCC(=O)N[C@@H](Cc1ccc(O)cc1)C(=O)[O-].[Na+] [Compound I-1 (Amorphous)] (Palmitoyl-PPGY-OH)	> 100 mg/mL

====

# assay notes: Approximate solubility of Compound I-2 (amorphous) at room temperature
# Type: physicochemical
# test context: 1,4-Dioxane
Residues, ends and D or L forms follow the SMILES beside them. *: point of attachment. Palmitoyl = CCCCCCCCCCCCCCCC(=O)*

molecule	solubility
CCCCCCCCCCCCCCCC(=O)N1CCC[C@H]1C(=O)N1CCC[C@H]1C(=O)NCC(=O)N[C@@H](Cc1ccc(O)cc1)C(=O)[O-].[K+] [Compound I-2 (amorphous)] (Palmitoyl-PPGY-OH)	< 1000 µg/mL

====

# assay notes: Approximate solubility of Compound I-2 (amorphous) at room temperature
# Assay type: physicochemical
# test context: Heptane
Residues, ends and D or L forms follow the SMILES beside them. *: point of attachment. Palmitoyl = CCCCCCCCCCCCCCCC(=O)*

compound	solubility
CCCCCCCCCCCCCCCC(=O)N1CCC[C@H]1C(=O)N1CCC[C@H]1C(=O)NCC(=O)N[C@@H](Cc1ccc(O)cc1)C(=O)[O-].[K+] [Compound I-2 (amorphous)] (Palmitoyl-PPGY-OH)	< 1000 µg/mL
